# System: SW-620
# ASSAY_TEXT: NCI tumour cell line growth inhibition, 48 h
Active and inactive are the calls of the source. Cut-off read from the data, not from the text of the source: active = GI50 up to about 1.1 µM and inactive = higher.
Select the correct class. Options are active, inactive and nothing else.

Answered examples (5):
{"COMPOUND": "NC(=O)C(C(N)=O)=C(O)/C(O)=C/C(=O)c1ccccc1", "GROUP_LABEL": "inactive"}
{"COMPOUND": "C=CCN1CN(C2CCCCC2)CSC1=S", "GROUP_LABEL": "active"}
{"COMPOUND": "NC1CCC[C@H]1O (stereo partly specified)", "GROUP_LABEL": "inactive"}
{"COMPOUND": "Oc1ccc(-c2nc(-c3ccc4ccccc4n3)c(-c3ccc(F)cc3)[nH]2)cc1", "GROUP_LABEL": "inactive"}
{"COMPOUND": "CCOC(=O)NC(=O)c1cn(CCOC(=O)NCCCCCCNC(=O)OCCn2cc(C(=O)NC(=O)OCC)c(=O)[nH]c2=O)c(=O)[nH]c1=O", "GROUP_LABEL": "inactive"}

Lookup: Returns: the outcome recorded for O=C1Nc2ccc(Br)cc2/C1=N/S(=O)(=O)O in this assay.
Found: inactive

---

# Tested on: HCT-15
# ASSAY_TEXT: NCI tumour cell line growth inhibition, 48 h
GI50 overview

Below are worked cases with known answers.
{"MOLECULE": "OCCSCC(O)Cn1cnc2c(O)nc(Nc3ccccc3)nc21 (stereo unspecified)", "EXPERIMENTAL_SYSTEM": "HCT-15", "MEASURE": "GI50", "OBSERVED_VALUE": "> 100 µM"}
{"MOLECULE": "CNC(=S)N/N=C(\\C)c1cc(OC)c(OC)cc1O", "EXPERIMENTAL_SYSTEM": "HCT-15", "MEASURE": "GI50", "OBSERVED_VALUE": "> 100 µM"}
{"MOLECULE": "COC12C=C(C)C(CC1)CC2C(=O)O (stereo unspecified)", "EXPERIMENTAL_SYSTEM": "HCT-15", "MEASURE": "GI50", "OBSERVED_VALUE": "> 100 µM"}

Lookup: Look up and state reported GI50 for CC1COC(c2cn[nH]c2C(N)=O)C1O (stereo unspecified)
Found: > 100 µM

Lookup: Report GI50, nothing else, for this molecule: COc1ccc(C2C(C(=O)c3ccccc3)=C(O)C(O)(CC(=O)c3ccccc3)N2c2ccc(OC)cc2)cc1 (stereo unspecified)
Found: 9.38 µM

Lookup: Please give the documented GI50 of CC(=O)c1ccc(Nc2c3ccccc3nc3occc23)cc1
Found: < 0.01 µM

---

# Test system: HCT-15
Where a SMILES comes first, the peptide text is derived from it. [ ]: non-standard residue; d: D form. The star is where a group is joined. Octanoyl = CCCCCCCC(=O)*; Aib = CC(C)(N)C(=O)O; tBu = CC(C)(C)*
MEASURE: GI50 (µM)
Form entry: value (µM) — number only.

Consider the following illustrative entries.
{"COMPOUND": "CN(C)CCc1ccnc2nc(-c3ccc4ccccc4c3)cn12", "EXPERIMENTAL_SYSTEM": "HCT-15", "GI50 (µM)": 34.6}
{"COMPOUND": "CC(C)(C)OC(=O)NC(Cc1ccc(OCc2ccccc2)cn1)C(=O)N1CCSCC1 (centres undefined)", "EXPERIMENTAL_SYSTEM": "HCT-15", "GI50 (µM)": 46.7}
{"COMPOUND": "CCCCCCCC(=O)NC(C)(C)C(=O)NC(COC(C)(C)C)C(=O)NC(CC(C)C)C(=O)NC(C)(C)C(=O)NC(COC(C)(C)C)C(=O)NC(COC(C)(C)C)C(=O)NC(CC(C)C)C(=O)NC(C)(C)C(=O)NC(COC(C)(C)C)C(=O)NC(C(=O)NC(CC(C)C)C(=O)OC)C(C)CC (centres undefined) (Octanoyl-[Aib]S(tBu)L[Aib]S(tBu)S(tBu)L[Aib]S(tBu)IL-OMe; configuration not given here)", "EXPERIMENTAL_SYSTEM": "HCT-15", "GI50 (µM)": 8.13}
{"COMPOUND": "CN(C)C(=S)C(Cl)(c1ccccc1)c1ccccc1", "EXPERIMENTAL_SYSTEM": "HCT-15", "GI50 (µM)": 63}
{"COMPOUND": "Cc1ccc(S(=O)(=O)n2cc(-c3cnc(N)c(Br)n3)c3ccccc32)cc1", "EXPERIMENTAL_SYSTEM": "HCT-15", "GI50 (µM)": 1.21}
{"COMPOUND": "CCCCCCC(O)C(O)CCC(O)C1CCC(CCCCC(O)CC2=CC(C)OC2=O)O1 (centres undefined)", "EXPERIMENTAL_SYSTEM": "HCT-15", "GI50 (µM)": 4.53}

Lookup: Tell me measured GI50 for CCOC(=O)N(CC)c1c(C(F)(F)F)cc(-c2ccccc2)[nH]c1=O please.
Found: 40.6

Lookup: Please give measured GI50 of the following entry: CC1=C(C)Cc2c(O)ccc(O)c2C1
Found: 17.5

Lookup: Read the entry C=C1C(=O)OC2C[C@H](C)C3CC(=O)C(C)=C3CC12 (some centres undefined) and write its reported GI50.
Found: 11.2

Lookup: Provide only the value of recorded GI50 for CN1CCc2c1nc(-c1ccc(Cl)cc1)c1c2N(C)CC1
Found: 7.06

Lookup: Recall and state the measured GI50 for N#C/N=C1/c2ccccc2/C(=N/C#N)c2cc(CO)ccc21 .
Found: 27.2

Origin of measurements: ChEMBL document CHEMBL1201862
